Listed here: items and their measured inhibition.
- TESTED_SYSTEM: G/T mismatch-specific thymine DNA glycosylase (Homo sapiens) (UniProt Q13569);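 also: human TDG cleavage of quenched duplex DNA oligonucleotides coupled to APE1, strand release read as fluorescence at 594 nm, inhibition of TDG activity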
- Sequence (Q13569 whole entry): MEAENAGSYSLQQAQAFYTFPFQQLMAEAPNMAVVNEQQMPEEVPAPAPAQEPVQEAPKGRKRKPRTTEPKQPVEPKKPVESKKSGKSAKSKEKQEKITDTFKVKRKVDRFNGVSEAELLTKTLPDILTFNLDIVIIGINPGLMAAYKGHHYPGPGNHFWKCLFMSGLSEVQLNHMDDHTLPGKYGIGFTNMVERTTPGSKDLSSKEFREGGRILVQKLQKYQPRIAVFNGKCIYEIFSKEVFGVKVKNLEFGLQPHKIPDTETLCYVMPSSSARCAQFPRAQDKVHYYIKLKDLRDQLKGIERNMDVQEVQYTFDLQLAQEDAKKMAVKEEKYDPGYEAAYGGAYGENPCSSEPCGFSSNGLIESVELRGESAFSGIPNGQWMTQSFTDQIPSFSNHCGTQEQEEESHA
- RUN_PARAMETERS: Compound Concentration 10.0 uM, Hit No
- Description: Inhibition of TDG by quantifying inhibition of TDG-mediated cleavage and dissociation of quenched duplex DNA oligonucleotides, measured as fluorescence at 594 nm. To generate a functional strand incision and increase turn-over this assay is coupled to APE1.
Field: numeric (%). Do not append units.

According to the records, this molecule `CSc1ccc(C(=O)/C=C/c2cc(C)c(OC(C)(C)C(=O)O)c(C)c2)cc1` displays inhibition of 99.6

According to the records, this molecule `c1ccc2oc(-c3csc(C4CCN(Cc5nc6ncccc6[nH]5)CC4)n3)cc2c1` displays inhibition of 76.8

According to the records, this molecule `COC(=O)c1sccc1S(=O)(=O)Nc1ccc(Nc2ccccc2)cc1OC` displays inhibition of 40.6

According to the records, this molecule `CCOC(=O)c1cnn(-c2ccc(NC(=O)C(Cl)=C(Cl)Cl)cc2)c1C(F)(F)F` displays inhibition of 5.37

According to the records, this molecule `CN(C)[C@H]1CCN(c2cc(-c3ccccc3)nc3ccnn23)C1` displays inhibition of 49

According to the records, this molecule `COc1nc2ccc([C@@](O)(c3ccccc3)C3CCN(C(C)=O)CC3)cc2c(Cl)c1Cc1ccc(-n2cccn2)cc1` displays inhibition of 48.5

According to the records, this molecule `C=CCN1C[C@H](C)N([C@H](c2ccc(C(=O)N(CC)CC)cc2)c2cccc(O)c2)C[C@H]1C` displays inhibition of 4.87

According to the records, this molecule `N#Cc1ccc(O[C@@H]2c3ccccc3C[C@H]2N2CCC[C@@H](N)C2)c(Cl)c1` displays inhibition of 18.8

According to the records, this molecule `COc1ccc(CC[C@@H](OC(=O)[C@@H]2CCCCN2C(=O)[C@H](c2cc(OC)c(OC)c(OC)c2)C2CCCCC2)c2cccc(OCCN3CCOCC3)c2)cc1OC` displays inhibition of 31.2

According to the records, this molecule `Cc1csc2c(N[C@@H](C)CN3CCN(S(=O)(=O)c4ccc(Cl)c(Cl)c4)CC3)ncnc12` displays inhibition of 16.4

According to the records, this molecule `O=C(Nc1cc(-c2ccccc2)nn1-c1ccccc1F)c1ccc([N+](=O)[O-])cc1` displays inhibition of -4.55

According to the records, this molecule `COc1ccc(C(=O)N2CCN(C(=O)/C=C/c3ccc(Br)cc3)CC2)cc1` displays inhibition of -0.119

According to the records, this molecule `O=C(Nc1ccc(C(O)(C(F)(F)F)C(F)(F)F)cc1)c1ccc(C(F)(F)F)cc1` displays inhibition of 98

According to the records, this molecule `CC(C)c1onc(-c2c(Cl)cccc2Cl)c1COc1ccc(/C=C/c2cccc(C(=O)O)c2)c(Cl)c1` displays inhibition of 100

According to the records, this molecule `CCOc1c2c(c(OCC)c3ncccc13)CN(c1ccc(CS(=O)(=O)NC(=O)Cc3ccccc3OC)cc1C)C2=O` displays inhibition of 20.4

According to the records, this molecule `Clc1cccc(Cl)c1NC1=NCCN1` displays inhibition of 0.825

According to the records, this molecule `Cn1cncc1[C@](O)(COc1ccc(C#N)cc1-c1ccc(OC(F)(F)F)cc1)c1ccc(C#N)cc1` displays inhibition of 37.9

According to the records, this molecule `O=C(NCc1ccccc1)c1ccc(S(=O)(=O)NCc2ccccc2)cc1` displays inhibition of 39

According to the records, this molecule `CC(C)(C)c1ccc2c(c1)CC[C@H]2NC(=O)Nc1cccc2[nH]ncc12` displays inhibition of -8.31

According to the records, this molecule `O=[N+]([O-])c1ccc(CN2CCOCCOCCN(Cc3ccc([N+](=O)[O-])cc3)CCOCC2)cc1` displays inhibition of -1.51
